Target: human norepinephrine transporter (Homo sapiens)
Construct: host or cells: HEK-293
Assay Overview: hNET receptor binding ([125I]-RTI-55 radioligand binding)
Reported Conditions: membranes of HEK-293 cells transfected with human norepinephrine transporter, IC50 converted to Ki by Cheng-Prusoff, read-out: hNET (Ki)
Consider the following molecules; for each one, report its pKi.
Give bare numbers, as −log10 of the molar value.

# Molecule, Target, Number
measured = [
    ("CCCC(Oc1ccccc1OCC)[C@@H]1CNCCO1 (mixture of isomers)", "human norepinephrine transporter (Homo sapiens)", 5.62),
    ("CCCc1ccccc1O[C@@H](c1ccccn1)[C@@H]1CNCCO1", "human norepinephrine transporter (Homo sapiens)", 8.15),
    ("Clc1cccc(Cl)c1O[C@@H](c1ccccc1)[C@@H]1CNCCO1", "human norepinephrine transporter (Homo sapiens)", 7.92),
    ("c1ccc([C@H](Oc2ccccc2-c2cccnc2)[C@@H]2CNCCO2)cc1", "human norepinephrine transporter (Homo sapiens)", 7.74),
    ("CCCC[C@H](Oc1cccnc1OCC)[C@@H]1CNCCO1", "human norepinephrine transporter (Homo sapiens)", 8.30),
    ("Cc1coc(C(Oc2ccccc2Br)[C@@H]2CNCCO2)n1 (stereo partly drawn)", "human norepinephrine transporter (Homo sapiens)", 8.15),
]

I have 7 molecules here; please give me pKi for each one.
1. Fc1ccc(Oc2ncccc2O[C@@H](c2ccccc2)[C@@H]2CNCCO2)cc1 [Example 65]
2. CC(C)c1cccc(F)c1O[C@@H](c1ccccc1)[C@@H]1CNCCO1
3. OCc1ccccc1O[C@@H](c1ccccc1)[C@@H]1CNCCO1
4. Fc1ccc(O[C@@H](c2ccccc2)[C@@H]2CNCCO2)c(C2CC2)c1
5. Fc1ccc([C@H](Oc2ccccc2F)[C@H]2CNCCO2)cc1
6. Cc1ccc(-c2ccccc2O[C@@H](c2ccccc2)[C@@H]2CNCCO2)cc1
7. CC(C)Cc1ncccc1O[C@@H](c1ccccc1)[C@@H]1CNCCO1

Return:
[7.07, 8.15, 7.43, 7.64, 6.85, 7.96, 7.51]

* * *

Target: human seritonin transporter (Homo sapiens)
Sequence (P31645 whole entry): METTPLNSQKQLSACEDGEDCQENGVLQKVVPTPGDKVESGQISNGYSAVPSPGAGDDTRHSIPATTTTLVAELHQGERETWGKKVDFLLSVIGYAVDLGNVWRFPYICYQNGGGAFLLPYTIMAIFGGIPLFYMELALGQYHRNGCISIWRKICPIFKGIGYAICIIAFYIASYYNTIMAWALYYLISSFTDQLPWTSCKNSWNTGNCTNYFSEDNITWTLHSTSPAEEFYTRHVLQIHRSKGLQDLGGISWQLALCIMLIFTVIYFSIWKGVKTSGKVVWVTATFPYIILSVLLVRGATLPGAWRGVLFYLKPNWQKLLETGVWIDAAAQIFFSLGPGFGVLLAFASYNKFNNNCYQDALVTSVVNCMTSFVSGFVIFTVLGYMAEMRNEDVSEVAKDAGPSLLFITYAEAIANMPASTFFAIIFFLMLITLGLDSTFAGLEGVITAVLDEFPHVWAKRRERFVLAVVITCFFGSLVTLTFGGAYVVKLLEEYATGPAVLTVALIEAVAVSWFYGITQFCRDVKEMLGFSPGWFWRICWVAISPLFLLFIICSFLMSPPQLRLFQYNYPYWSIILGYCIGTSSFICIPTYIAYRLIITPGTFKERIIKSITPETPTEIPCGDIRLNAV
Field: pKi. Provide a value for each of the molecules that follow.
Numbers only, as −log10 of the molar value.

Some molecules with recorded pKi:
# Molecule, Number
measured = [
    ("Fc1cccc(C(F)(F)F)c1O[C@@H](c1ccccc1)[C@@H]1CNCCO1", 6.15),
    ("c1ccc([C@H](Oc2ccccc2C2CC2)[C@@H]2CNCCO2)nc1", 5.60),
    ("Oc1ccccc1O[C@@H](c1ccccc1)[C@@H]1CNCCO1", 5.20),
    ("Fc1cccc(Cl)c1O[C@@H](c1ccccc1)[C@@H]1CNCCO1 [Example 113]", 7.15),
]

// for each molecule in input: emit pKi
1. Fc1ccc(-c2ccccc2O[C@@H](c2ccccc2)[C@@H]2CNCCO2)cc1
2. CCOc1ccccc1O[C@@H](c1cccc(C)n1)[C@@H]1CNCCO1
3. COc1cccc([C@H](Oc2ccccc2OC(C)C)[C@@H]2CNCCO2)n1
4. Fc1ccc(O[C@@H](c2ccccc2)[C@@H]2CNCCO2)cc1

Return:
1: 5.36; 2: 5.43; 3: 6.12; 4: 5.72

Please give pKi for each item listed below.
1. CCOc1ccccc1O[C@@H](c1cccc(OC)n1)[C@@H]1CNCCO1
2. CSc1cc(F)ccc1O[C@@H](c1ccccc1)[C@@H]1CNCCO1
3. Cc1coc(C(Oc2ccccc2OC(F)(F)F)[C@@H]2CNCCO2)n1 (stereo partly shown)
4. Fc1ccc(O[C@H](c2ccccn2)[C@H]2CNCCO2)c(F)c1
5. Cc1ccccc1O[C@@H](c1ccccc1)[C@@H]1CNCCO1
6. Cc1ncccc1O[C@@H](c1ccccc1)[C@@H]1CNCCO1
7. CC(C)Cc1ncccc1O[C@@H](c1ccccc1)[C@@H]1CNCCO1
8. CCc1ccnc([C@H](Oc2c(F)cccc2OC)[C@@H]2CNCCO2)c1

Return:
6.17
7.21
5.12
6.39
6.14
7.00
5.15
5.56

* * *

Target: human norepinephrine transporter (Homo sapiens)
Construct: host or cells: HEK-293
Assay Overview: hNET receptor binding ([125I]-RTI-55 radioligand binding)
Reported Conditions: membranes of HEK-293 cells transfected with human norepinephrine transporter, IC50 converted to Ki by Cheng-Prusoff, read-out: hNET (Ki)
Please respond with reported Ki for every item in the list.
Give bare numbers, in nM.

Below, each entry is followed by its recorded Ki result.
# Compound, Output Unit, Number
data = [
    ("COc1ccc(F)cc1OC(c1ccccc1)[C@@H]1CNCCO1 (stereo partly drawn) [Example 167]", "nM", 8),
    ("N#Cc1ccccc1O[C@@H](c1ccccc1)[C@@H]1CNCCO1 [Example 93]", "nM", 11),
    ("CCOc1ccccc1O[C@H](c1ccccn1)[C@H]1CNCCO1 [Example 181]", "nM", 225),
    ("Cc1coc(C(Oc2c(F)cccc2F)[C@@H]2CNCCO2)n1 (mixture of isomers) [Example 134]", "nM", 18),
    ("Clc1ccccc1-c1ccccc1O[C@@H](c1ccccc1)[C@@H]1CNCCO1 [Example 30]", "nM", 41),
    ("Cc1coc(C(Oc2ccccc2C2CC2)[C@@H]2CNCCO2)n1 (stereo partly drawn) [Example 190]", "nM", 6),
    ("COc1c(F)cccc1OC(c1ccccc1)[C@@H]1CNCCO1 (stereo partly drawn) [Example 168]", "nM", 5),
    ("CCOC(=O)c1ccccc1O[C@@H](c1ccccc1)[C@@H]1CNCCO1 [Example 15]", "nM", 15),
]

Ki in this record for Fc1ccc(C(Oc2c(F)cccc2F)[C@H]2CNCCO2)cc1 (stereo partly drawn) [Example 111] : 105

* * *

Target: human norepinephrine transporter (Homo sapiens)
Construct: host or cells: HEK-293
Assay Overview: hNET receptor binding ([125I]-RTI-55 radioligand binding)
Reported Conditions: membranes of HEK-293 cells transfected with human norepinephrine transporter, IC50 converted to Ki by Cheng-Prusoff, read-out: hNET (Ki)
Quantity: pKi
Answers are plain numbers, as −log10 of the molar value.

# Molecule, pKi
measured = [
    ("c1ccc(Oc2ncccc2OC[C@H]2CNCCO2)cc1", 5.50),
    ("CCc1ccccc1O[C@@H](c1ccccc1)[C@@H]1CNCCO1", 7.66),
    ("c1ccc([C@H](Oc2ccccc2C2CCCCC2)[C@@H]2CNCCO2)cc1", 7.39),
]

Hi team, please reply with pKi for each item in this list.
1. N#Cc1ccccc1OC(c1cccnc1)[C@@H]1CNCCO1 (stereo partly drawn)
2. c1ccc([C@H](Oc2cccc3c2CCC3)[C@@H]2CNCCO2)nc1
3. Fc1ccc(O[C@@H](c2ccccc2)[C@@H]2CNCCO2)c(F)c1
4. CCOc1ncccc1O[C@@H](CC1CCCCC1)[C@@H]1CNCCO1
5. CCOc1ccccc1O[C@@H](c1cccc(C)n1)[C@@H]1CNCCO1

Return:
1: 6.68; 2: 8.07; 3: 7.72; 4: 8.30; 5: 7.57

Looking up "c1ccc([C@H](Oc2cccnc2C2CC2)[C@@H]2CNCCO2)cc1" , I see its pKi listed as 7.70

* * *

Observed pKi, system human seritonin transporter (Homo sapiens, UniProt P31645).
Numbers only, as −log10 of the molar value.

These solved cases illustrate the format of a correct answer.
# Compound, Number
records = [
    ("Fc1ccc(-c2cc(F)ccc2OCC2CNCCO2)cc1 (centres unmarked)", 6.46),
    ("Cc1coc(C(Oc2ccccc2Br)[C@@H]2CNCCO2)n1 (some centres unmarked)", 5.71),
    ("CCCC[C@H](Oc1cccnc1OCC)[C@@H]1CNCCO1", 5.47),
    ("CCOc1ncccc1O[C@@H](c1ccccc1)[C@@H]1CNCCO1", 5.74),
]

Hello, I would appreciate it if you could give pKi for each entry below.
1. Brc1ccccc1OC(c1ccccc1)[C@H]1CNCCO1 (some centres unmarked)
2. c1ccc([C@H](Oc2ccccc2C2CCCCC2)[C@@H]2CNCCO2)cc1

Return:
6.98
5.61

I need pKi for every entry listed below, if you could help.
1. CCOc1ccccc1O[C@@H](c1ncccc1C)[C@@H]1CNCCO1
2. c1ccc([C@H](Oc2ccccc2C2CC2)[C@@H]2CNCCO2)cc1
3. Fc1ccccc1O[C@@H](c1ccccc1)[C@H]1CNCCO1

Return:
1: 5.42; 2: 6.34; 3: 7.14

List the reported pKi of each compound below.
1. c1ccc([C@H](Oc2ccccc2N2CCNCC2)[C@@H]2CNCCO2)cc1
2. Clc1cccc(Cl)c1O[C@@H](c1ccccc1)[C@@H]1CNCCO1

Return:
1. 5.87
2. 7.19

* * *

I'd appreciate it if you could supply pKi values for the items below.
Target: human norepinephrine transporter (Homo sapiens, UniProt P23975)
Construct: host or cells: HEK-293
Sequence (P23975 whole entry): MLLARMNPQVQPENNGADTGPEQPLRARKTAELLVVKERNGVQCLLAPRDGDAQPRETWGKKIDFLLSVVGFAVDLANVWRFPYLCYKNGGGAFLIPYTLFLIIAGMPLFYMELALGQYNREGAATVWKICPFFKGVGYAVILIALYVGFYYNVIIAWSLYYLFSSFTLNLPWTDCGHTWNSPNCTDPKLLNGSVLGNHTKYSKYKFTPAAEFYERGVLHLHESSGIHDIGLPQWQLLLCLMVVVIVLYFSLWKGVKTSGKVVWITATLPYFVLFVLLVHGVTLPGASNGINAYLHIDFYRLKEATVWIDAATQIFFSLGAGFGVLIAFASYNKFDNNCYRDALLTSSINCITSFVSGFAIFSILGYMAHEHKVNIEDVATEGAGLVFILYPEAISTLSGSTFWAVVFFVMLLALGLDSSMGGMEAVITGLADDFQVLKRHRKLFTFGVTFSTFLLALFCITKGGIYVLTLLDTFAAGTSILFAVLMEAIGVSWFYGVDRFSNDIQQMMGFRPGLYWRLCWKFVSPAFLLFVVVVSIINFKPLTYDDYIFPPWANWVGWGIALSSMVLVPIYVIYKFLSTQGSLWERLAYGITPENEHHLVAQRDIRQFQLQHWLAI
Assay Overview: hNET receptor binding ([125I]-RTI-55 radioligand binding)
Reported Conditions: membranes of HEK-293 cells transfected with human norepinephrine transporter, IC50 converted to Ki by Cheng-Prusoff, read-out: hNET (Ki)
One number for each entry, as −log10 of the molar value.

Previously resolved entries follow.
# Compound, pKi
measured = [
    ("Fc1ccc(O[C@@H](c2ccccc2)[C@@H]2CNCCO2)cc1", 7.59),
    ("CCOc1ccccc1OC(c1cccc[n+]1[O-])[C@@H]1CNCCO1 (stereo in doubt)", 6.82),
    ("CCOc1ncccc1OC(CC)[C@@H]1CNCCO1 (mixture of isomers)", 6.99),
]

Query compound follows.
Lab entry: human norepinephrine transporter (Homo sapiens, UniProt P23975) assay, compound Fc1ccc(OC(c2cccnc2)C2CNCCO2)c(Cl)c1 (stereo in doubt) , pKi = 5.99
